# TARGET SYSTEM: Lp-PLA2 (Homo sapiens)
# Construct: aliquoted and thawed 40 μL of pooled human plasma was previously added; from tissue; host or cells: pooled human plasma
# ASSAY NOTES: Lipoprotein-associated phospholipase A2 (Lp-PLA2) human plasma assay (Thio-PAF assay)
# Type: biochemical
# RECORDED CONDITIONS: Lp-PLA2 human plasma assay (Thio-PAF), pooled human plasma, 30-min pre-incubation at room temperature
VALUE KIND: log10(IC50) (log10 of the value in nM)

1. N#CC12CN3c4cc(OCc5ccc(Oc6ccnc(C(F)(F)F)c6)c(F)c5)nc(=O)n4CC3(C1)C2
0.64
2. O=c1nc(OCc2ccc(Oc3ccnc(Cl)c3)c(F)c2)cc2n1CC13CC(CN21)C3
0.57
3. O=c1nc(OCc2ccc(Oc3ccc(Cl)c(C(F)(F)F)c3)c(F)c2)cc2n1CC13CCC(CC1)N23
0.41
4. O=c1nc(OCCc2ccc(F)c(F)c2)cc2n1C[C@]13CO[C@H](CN21)C3
1.80
5. O=c1nc(OCc2ccc(Oc3ccnc(C(F)(F)F)c3)c(F)c2)cc2n1CC13CC(F)(CN21)C3
0.59

====

# TARGET SYSTEM: Lp-PLA2 (Homo sapiens)
# Construct: aliquoted and thawed 40 μL of pooled human plasma was previously added; from tissue; host or cells: pooled human plasma
# Sequence (Q13093 22-441): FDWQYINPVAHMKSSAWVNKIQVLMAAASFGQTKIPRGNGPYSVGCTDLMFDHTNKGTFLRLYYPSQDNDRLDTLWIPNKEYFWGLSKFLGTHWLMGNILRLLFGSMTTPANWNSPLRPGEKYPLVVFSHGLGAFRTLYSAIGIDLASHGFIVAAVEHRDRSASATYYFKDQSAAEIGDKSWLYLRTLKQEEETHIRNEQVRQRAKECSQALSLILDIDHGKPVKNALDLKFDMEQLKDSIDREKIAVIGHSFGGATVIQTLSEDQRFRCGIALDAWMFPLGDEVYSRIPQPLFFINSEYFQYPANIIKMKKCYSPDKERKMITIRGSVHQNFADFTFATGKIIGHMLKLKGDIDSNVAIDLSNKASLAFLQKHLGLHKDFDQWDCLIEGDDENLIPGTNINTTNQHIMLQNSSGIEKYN
# ASSAY NOTES: Lipoprotein-associated phospholipase A2 (Lp-PLA2) human plasma assay (Thio-PAF assay)
# Assay type: biochemical
# RECORDED CONDITIONS: Lp-PLA2 human plasma assay (Thio-PAF), pooled human plasma, 30-min pre-incubation at room temperature
Returns: string. Value is true if measured IC50 is below 6 nM, and false if it is greater than or equal to it.

1. O=c1nc(OCc2ccc(Oc3ccnc(C(F)F)c3)cc2)cc2n1CC13CC(CN21)C3
false
2. O=c1nc(OCc2ccc(Oc3ccnc(C(F)(F)F)c3)cc2F)cc2n1C[C@]13CO[C@H](CN21)C3
true
3. COc1c(OCc2cc(F)c(F)c(F)c2)nc(=O)n2c1N1CC3CC1(C3)C2
true
4. O=c1nc(OCc2ccc(Oc3ccnc(C(F)(F)F)c3)cc2)cc2n1C[C@]13CO[C@H](CN21)C3
false
5. O=c1nc(OCc2cc(F)c(Oc3ccc(F)c(F)c3)c(F)c2)cc2n1C[C@]13CO[C@H](CN21)C3
true
6. O=c1nc(OCc2ccccc2F)cc2n1CC13CC(CN21)C3
false
7. O=c1nc(OCc2ccc(Oc3ccnc(OC(F)(F)F)c3)c(F)c2)cc2n1CC13CC(CN21)C3
true

====

# TARGET SYSTEM: Lp-PLA2 (Homo sapiens, UniProt Q13093)
# Construct: aliquoted and thawed 40 μL of pooled human plasma was previously added; from tissue; host or cells: pooled human plasma
# ASSAY NOTES: Lipoprotein-associated phospholipase A2 (Lp-PLA2) human plasma assay (Thio-PAF assay)
# Type: biochemical
# RECORDED CONDITIONS: Lp-PLA2 human plasma assay (Thio-PAF), pooled human plasma, 30-min pre-incubation at room temperature
pIC50: −log10 of the molar value.
VALUE KIND: pIC50

1. O=c1nc(OCc2cc(F)c(Oc3cccc(F)c3)c(F)c2)cc2n1C[C@]13CO[C@H](CN21)C3
8.24
2. O=c1nc(OCc2cc(F)c(Oc3ccnc(OC(F)(F)F)c3)c(F)c2)cc2n1CC13CC(CN21)C3
8.24
3. O=c1nc(OCc2ccc(Oc3ccnc(C(F)(F)F)c3)cc2F)cc2n1CC13CC(CN21)C3
7.97
4. N#Cc1cc(F)cc(COc2cc3n(c(=O)n2)CC24CC(F)(CN32)C4)c1
6.89
5. COc1c(OCc2ccc(Oc3ccnc(C(F)F)c3)c(F)c2)nc(=O)n2c1N1CC3CC1(C3)C2
8.41
6. Cn1cc(Oc2c(F)cc(COc3cc4n(c(=O)n3)CC3(C)CCCN43)cc2F)cn1 (centres unmarked)
7.21
7. O=c1nc(OCc2cc(F)c(Oc3ccnc(Cl)c3)c(F)c2)cc2n1CC13CC(CN21)C3
8.07
8. O=c1nc(OCc2ccc(Oc3ccnc(C(F)F)c3)c(F)c2)cc2n1CC13CC(CN21)C3
8.19

====

# TARGET SYSTEM: Lp-PLA2 (Homo sapiens, UniProt Q13093)
# Construct: aliquoted and thawed 40 μL of pooled human plasma was previously added; from tissue; host or cells: pooled human plasma
# Sequence (Q13093 22-441): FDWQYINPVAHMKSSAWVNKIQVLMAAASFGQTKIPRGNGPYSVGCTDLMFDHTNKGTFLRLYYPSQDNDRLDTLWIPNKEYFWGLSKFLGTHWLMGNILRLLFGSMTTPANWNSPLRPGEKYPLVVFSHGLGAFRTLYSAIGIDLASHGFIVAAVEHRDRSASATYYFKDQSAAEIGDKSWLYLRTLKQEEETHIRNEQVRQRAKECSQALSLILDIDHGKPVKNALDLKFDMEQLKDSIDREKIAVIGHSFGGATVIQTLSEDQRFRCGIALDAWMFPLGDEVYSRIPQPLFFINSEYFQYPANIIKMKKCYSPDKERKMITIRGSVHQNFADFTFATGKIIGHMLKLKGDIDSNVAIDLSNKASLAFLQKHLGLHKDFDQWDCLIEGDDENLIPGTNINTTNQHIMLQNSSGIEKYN
# ASSAY NOTES: Lipoprotein-associated phospholipase A2 (Lp-PLA2) human plasma assay (Thio-PAF assay)
# Format: biochemical
# RECORDED CONDITIONS: Lp-PLA2 human plasma assay (Thio-PAF), pooled human plasma, 30-min pre-incubation at room temperature
pIC50: −log10 of the molar value.
Quick reference for pIC50 among some compounds
VALUE KIND: pIC50

1. O=c1nc(OCc2ccc(Oc3ccnc(C(F)(F)F)c3)c(F)c2)cc2n1CC13CC(C(F)F)(CN21)C3 [Example 139]
8.59
2. N#Cc1cc(Oc2ccc(COc3cc4n(c(=O)n3)CC35CC(CN43)C5)cc2F)cc(C(F)(F)F)c1 [Example 95]
8.13
3. O=c1nc(OCc2ccc(Oc3ccc(C(F)(F)F)cc3)c(F)c2)cc2n1CC13CCC(CC1)N23 [Example 130]
8.32
4. COCC12CN3c4cc(OCc5ccc(Oc6ccnc(C(F)(F)F)c6)c(F)c5)nc(=O)n4CC3(C1)C2 [Example 138]
8.62
5. O=c1nc(OCCc2ccc(Oc3ccc(Cl)c(C(F)(F)F)c3)cc2)cc2n1C[C@]13CO[C@H](CN21)C3 [Example 23]
8.30
6. N#Cc1cc(COc2cc3n(c(=O)n2)C[C@]24CO[C@H](CN32)C4)ccc1Oc1ccc(Cl)c(F)c1 [Example 20]
8.17
7. O=c1nc(OCCc2ccc(Oc3cccc(C(F)(F)F)c3)c(F)c2)cc2n1CC13CC(CN21)C3 [Example 182]
8.03

====

# TARGET SYSTEM: Lp-PLA2 (Homo sapiens)
# Construct: aliquoted and thawed 40 μL of pooled human plasma was previously added; from tissue; host or cells: pooled human plasma
# ASSAY NOTES: Lipoprotein-associated phospholipase A2 (Lp-PLA2) human plasma assay (Thio-PAF assay)
# Format: biochemical
# RECORDED CONDITIONS: Lp-PLA2 human plasma assay (Thio-PAF), pooled human plasma, 30-min pre-incubation at room temperature
VALUE KIND: IC50

1. O=C(c1ccccc1)N1C[C@]23C[C@H]1CN2c1cc(OCc2ccc(Oc4ccnc(C(F)(F)F)c4)c(F)c2)nc(=O)n1C3
5 nM
2. O=c1nc(OCc2cc(F)c(Oc3ccnc(C(F)(F)F)c3)c(F)c2)cc2n1CC13CC(CN21)C3
9.6 nM
3. CC12CCCN1c1cc(OCc3ccc(Oc4ccc(C(F)(F)F)cc4)c(C#N)c3)nc(=O)n1C2 (stereo not shown)
6.6 nM
4. CC12CCCN1c1cc(OCc3cc(F)c(Oc4ccnc(C(F)(F)F)c4)c(F)c3)nc(=O)n1C2 (stereo not shown)
7.6 nM
5. O=c1nc(OCc2cc(F)c(Oc3ccnc(Cl)c3)c(F)c2)cc2n1C[C@]13CO[C@H](CN21)C3
4.9 nM
6. CN1C(=O)[C@]23C[C@H]1CN2c1cc(OCc2cc(F)c(Oc4cnn(C)c4)c(F)c2)nc(=O)n1C3
19.4 nM
7. O=c1nc(OCCc2cc(F)c(Oc3ccnc(C(F)(F)F)c3)c(F)c2)cc2n1C[C@]13CO[C@H](CN21)C3
5.6 nM
